Reference for the values: patent US9718790B2

Listed below: IC50 values for each entry.
Target: human P2X3 receptor (Homo sapiens (Human), UniProt P56373)
Sequence (P56373 whole entry): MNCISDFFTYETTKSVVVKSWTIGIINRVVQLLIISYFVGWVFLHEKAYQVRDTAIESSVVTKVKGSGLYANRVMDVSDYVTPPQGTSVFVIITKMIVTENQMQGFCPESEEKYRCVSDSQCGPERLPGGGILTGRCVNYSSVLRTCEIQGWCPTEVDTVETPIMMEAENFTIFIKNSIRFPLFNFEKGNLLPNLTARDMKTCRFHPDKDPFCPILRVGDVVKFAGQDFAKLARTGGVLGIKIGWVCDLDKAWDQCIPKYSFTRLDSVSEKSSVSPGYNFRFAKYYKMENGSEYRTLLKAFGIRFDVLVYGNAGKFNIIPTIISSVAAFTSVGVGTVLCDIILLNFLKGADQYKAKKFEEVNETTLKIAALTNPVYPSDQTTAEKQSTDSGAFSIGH
Assay: Evaluation of human P2X3 receptor inhibitory activity (Fluo-3 calcium fluorescence, FDSS 3000, ATP stimulation)
Assay type: cell-based
Conditions: human P2X3 receptor, Test Example 1
Give just the numeric value; nM need not be written.

Illustrative cases are given below, each with its answer.
smiles.text: NC(=O)Cn1c(=O)[nH]/c(=N\c2ccc(Oc3ccon3)c(F)c2)n(Cc2ccc(Cl)cc2)c1=O
assay.system: human P2X3 receptor (Homo sapiens (Human), UniProt P56373)
endpoint: IC50
obs.value: 7

smiles.text: O=C(O)Cn1c(=O)[nH]/c(=N\c2ccc(Oc3nccs3)cc2)n(Cc2ccc(Cl)cc2)c1=O
assay.system: human P2X3 receptor (Homo sapiens (Human), UniProt P56373)
endpoint: IC50
obs.value: 506

Consider the molecule shown here: CCn1c(=O)[nH]/c(=N\c2ccc(Oc3nccc(C(N)=O)n3)cc2)n(Cc2ccc(Cl)cc2)c1=O What is its recorded IC50?
8

Consider the molecule shown here: Cn1c(=O)[nH]/c(=N\c2ccc(Oc3ccc(C(N)=O)nn3)cc2)n(Cc2ccc(Cl)cc2)c1=O What is its recorded IC50?
9

Consider the molecule shown here: CCn1c(=O)[nH]/c(=N\c2ccc(Oc3ccc(NCC(N)=O)nc3)cc2)n(Cc2ccc(Cl)cc2)c1=O What is its recorded IC50?
3

Consider the molecule shown here: CCn1c(=O)[nH]/c(=N\c2ccc(Oc3cccc(/C=C/C(=O)OC)c3)cc2)n(Cc2ccc(C)cc2)c1=O What is its recorded IC50?
8

---

Molecular target: human P2X3 receptor (Homo sapiens (Human), UniProt P56373)
Assay: Evaluation of human P2X3 receptor inhibitory activity (Fluo-3 calcium fluorescence, FDSS 3000, ATP stimulation)
Format: cell-based
Conditions: C6BU-1 cells stably expressing human P2X3 receptor
Listed below: IC50 values for each entry.
Give just the numeric value; nM need not be written.

Illustrative cases are given below, each with its answer.
molecule: COC(=O)[C@@H](C)Cn1c(=O)[nH]/c(=N\c2cccc(OC)c2)n(Cc2ccc(C)cc2)c1=O
assay.system: human P2X3 receptor (Homo sapiens (Human), UniProt P56373)
IC50 [nM]: 788
//
molecule: COC(=O)[C@H](Cn1c(=O)[nH]/c(=N\c2ccc(OC(C)C)c(C)c2)n(Cc2ccc(Cl)cc2)c1=O)OC
assay.system: human P2X3 receptor (Homo sapiens (Human), UniProt P56373)
IC50 [nM]: 12
//
molecule: COC(=O)[C@@H](C)Cn1c(=O)[nH]/c(=N\c2ccc(OC3COC3)cc2)n(Cc2ccc(C)cc2)c1=O
assay.system: human P2X3 receptor (Homo sapiens (Human), UniProt P56373)
IC50 [nM]: 61
//
molecule: CCOC(=O)C(CNc1ccc(OC(C)C)c(C)c1)Cn1c(=O)[nH]/c(=N\c2ccc(OC(C)C)c(C)c2)n(Cc2ccc(Cl)cc2)c1=O (stereo not drawn)
assay.system: human P2X3 receptor (Homo sapiens (Human), UniProt P56373)
IC50 [nM]: 84

From here, focus on the item given below.
Consider the molecule shown here: COC(=O)[C@@H](C)Cn1c(=O)[nH]/c(=N\c2ccc(C=C(C)C)nc2)n(Cc2ccc(C)cc2)c1=O What is its recorded IC50?
514

---

Molecular target: human P2X3 receptor (Homo sapiens (Human), UniProt P56373)
Assay: Evaluation of human P2X3 receptor inhibitory activity (Fluo-3 calcium fluorescence, FDSS 3000, ATP stimulation);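 note: stimulus was 50 nM ATP with fluorescence followed for 3 min, and the response per well was peak post-ATP fluorescence divided by the reading at measurement start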
Format: cell-based
Details: human P2X3 receptor, Test Example 1
endpoint: IC50 (nM)
Give just the numeric value; nM need not be written.

Illustrative cases are given below, each with its answer.
compound: Cc1cnc(Oc2ccc(/N=c3\[nH]c(=O)n(CC(O)CO)c(=O)n3Cc3ccc(Cl)cc3)cc2)s1 (stereo not shown) [Compound I-2456]
endpoint: IC50
obs.value: 8

compound: Cc1nc(-c2ccc(/N=c3\[nH]c(=O)n(C[C@H](C)C(=O)O)c(=O)n3Cc3ccc(Cl)cc3)cc2)no1 [Compound I-1530]
endpoint: IC50
obs.value: 93

compound: CCn1c(=O)[nH]/c(=N\c2ccc(Oc3ccc(C(=O)O)nc3)cc2)n(C[C@H]2CC[C@H](C)CC2)c1=O [Compound I-2351]
endpoint: IC50
obs.value: 9

Consider the compound shown here: Cc1nsc(Oc2ccc(/N=c3\[nH]c(=O)n(CCCO)c(=O)n3Cc3ccc(F)cc3)cc2)n1 [Compound I-2606] What is its recorded IC50?
14

Consider the compound shown here: CCOC(=O)C1(Cn2c(=O)[nH]/c(=N\c3ccc4nc(CC)sc4c3)n(Cc3ccc(Cl)cc3)c2=O)CC1 [Compound I-1539] What is its recorded IC50?
4

Consider the compound shown here: CCOC(=O)CCn1c(=O)[nH]/c(=N\c2ccc(OC(C)C)c(Cl)c2)n(Cc2ccc(C)cc2)c1=O [Compound I-0866] What is its recorded IC50?
2

Consider the compound shown here: CCn1c(=O)[nH]/c(=N\c2ccc(Oc3nc(C(=O)O)c(C)s3)cc2)n(Cc2ccc(Cl)cc2)c1=O [Compound I-2450] What is its recorded IC50?
8
